Measured solubility kinetic, listed per entry for reference.
Experiment: high-throughput solubility pH 6.8
Format: physicochemical
Conditions: high-throughput assay format, read-out: HT sol. pH 6.8
assay metric: solubility kinetic (µM)

- COc1cccnc1-c1cnc2nc(-c3cc(NC(=O)c4oc(C)nc4C)ccc3F)nn2c1: 7
- Cc1nc(C)c(C(=O)Nc2ccc(F)c(-c3nc4ncc(-c5ncccc5C)cn4n3)c2)o1: 17
- Cc1nc(C)c(C(=O)Nc2ccc(F)c(-c3nc4ncc(-c5ncccc5C(F)F)cn4n3)c2)o1: 21
- Cc1nc(C)c(C(=O)Nc2ccc(F)c(-c3nc4ncc(-c5ncccc5Cl)cn4n3)c2)o1: 7

###

Assay: in vivo
Conditions: male, beagle, dog, plasma, iv, 0.3 mg/kg
assay metric: Vd (L/kg)

• Cc1nc(C)c(C(=O)Nc2ccc(F)c(-c3nc4ncc(-c5ncccc5C)cn4n3)c2)o1 = 2.1

###

Measured ER human, listed per entry for reference.
Conditions: microsomal extraction ratio, 1 h incubation in microsomes
assay metric: ER human

• Cc1nc(C)c(C(=O)Nc2ccc(F)c(-c3nc4ncc(-c5ccccn5)cn4n3)c2)o1 = 0.3
• COc1cccnc1-c1cnc2nc(-c3cc(NC(=O)c4oc(C)nc4C)ccc3F)nn2c1 = < 0.21
• Cc1nc(C)c(C(=O)Nc2ccc(F)c(-c3nc4ncc(-c5ncccc5C)cn4n3)c2)o1 = 0.27
• Cc1nc(C)c(C(=O)Nc2ccc(F)c(-c3nc4ncc(-c5ncccc5C(F)F)cn4n3)c2)o1 = 0.55

###

Assay: in vivo
Conditions: male, Sprague-Dawley, rat, plasma, po, 10 mg/kg
assay metric: bioavailability (%)

• Cc1nc(C)c(C(=O)Nc2ccc(F)c(-c3nc4ncc(-c5ncccc5C)cn4n3)c2)o1 = 67

###

Molecular target: BSEP (Homo sapiens, UniProt O95342)
Sequence (O95342 whole entry): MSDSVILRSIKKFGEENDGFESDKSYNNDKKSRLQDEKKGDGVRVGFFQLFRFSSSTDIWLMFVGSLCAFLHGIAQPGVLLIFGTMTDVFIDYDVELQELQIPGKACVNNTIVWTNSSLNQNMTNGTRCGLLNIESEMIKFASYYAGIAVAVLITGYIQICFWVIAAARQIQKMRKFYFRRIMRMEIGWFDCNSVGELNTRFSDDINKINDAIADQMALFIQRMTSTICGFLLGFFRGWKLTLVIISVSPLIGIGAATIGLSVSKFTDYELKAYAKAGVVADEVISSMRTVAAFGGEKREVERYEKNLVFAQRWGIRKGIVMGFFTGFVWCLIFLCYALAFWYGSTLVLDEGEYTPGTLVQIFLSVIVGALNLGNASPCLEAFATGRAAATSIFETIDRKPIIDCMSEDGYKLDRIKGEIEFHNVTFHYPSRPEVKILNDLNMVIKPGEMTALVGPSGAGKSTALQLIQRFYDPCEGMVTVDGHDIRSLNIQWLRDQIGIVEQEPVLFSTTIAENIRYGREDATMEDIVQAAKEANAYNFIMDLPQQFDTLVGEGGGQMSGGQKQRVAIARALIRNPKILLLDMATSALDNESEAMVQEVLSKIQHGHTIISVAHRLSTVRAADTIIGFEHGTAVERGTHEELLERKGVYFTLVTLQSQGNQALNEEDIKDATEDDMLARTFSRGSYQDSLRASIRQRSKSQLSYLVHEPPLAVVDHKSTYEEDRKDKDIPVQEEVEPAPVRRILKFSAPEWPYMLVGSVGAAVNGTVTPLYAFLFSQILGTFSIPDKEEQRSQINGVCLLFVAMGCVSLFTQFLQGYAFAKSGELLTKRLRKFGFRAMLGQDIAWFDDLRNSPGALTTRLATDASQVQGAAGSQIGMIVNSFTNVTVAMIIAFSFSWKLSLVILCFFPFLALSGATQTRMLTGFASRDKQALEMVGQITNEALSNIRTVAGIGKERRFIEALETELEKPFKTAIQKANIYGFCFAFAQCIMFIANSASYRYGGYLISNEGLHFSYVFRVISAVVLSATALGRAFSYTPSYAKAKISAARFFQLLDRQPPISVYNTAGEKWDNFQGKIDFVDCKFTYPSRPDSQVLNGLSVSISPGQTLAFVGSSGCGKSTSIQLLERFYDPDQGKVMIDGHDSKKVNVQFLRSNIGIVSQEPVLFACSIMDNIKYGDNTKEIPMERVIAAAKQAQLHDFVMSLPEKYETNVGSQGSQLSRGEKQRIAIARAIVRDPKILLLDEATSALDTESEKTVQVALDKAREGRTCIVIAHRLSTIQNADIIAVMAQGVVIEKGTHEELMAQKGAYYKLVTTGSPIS
Experiment: receptor profile (Table S4), first BSEP line
assay metric: inhibition at 30 µM

- Cc1nc(C)c(C(=O)Nc2ccc(F)c(-c3nc4ncc(-c5ncccc5C)cn4n3)c2)o1: 45%

###

Target: hERG (Homo sapiens, UniProt Q12809)
Sequence (Q12809 whole entry): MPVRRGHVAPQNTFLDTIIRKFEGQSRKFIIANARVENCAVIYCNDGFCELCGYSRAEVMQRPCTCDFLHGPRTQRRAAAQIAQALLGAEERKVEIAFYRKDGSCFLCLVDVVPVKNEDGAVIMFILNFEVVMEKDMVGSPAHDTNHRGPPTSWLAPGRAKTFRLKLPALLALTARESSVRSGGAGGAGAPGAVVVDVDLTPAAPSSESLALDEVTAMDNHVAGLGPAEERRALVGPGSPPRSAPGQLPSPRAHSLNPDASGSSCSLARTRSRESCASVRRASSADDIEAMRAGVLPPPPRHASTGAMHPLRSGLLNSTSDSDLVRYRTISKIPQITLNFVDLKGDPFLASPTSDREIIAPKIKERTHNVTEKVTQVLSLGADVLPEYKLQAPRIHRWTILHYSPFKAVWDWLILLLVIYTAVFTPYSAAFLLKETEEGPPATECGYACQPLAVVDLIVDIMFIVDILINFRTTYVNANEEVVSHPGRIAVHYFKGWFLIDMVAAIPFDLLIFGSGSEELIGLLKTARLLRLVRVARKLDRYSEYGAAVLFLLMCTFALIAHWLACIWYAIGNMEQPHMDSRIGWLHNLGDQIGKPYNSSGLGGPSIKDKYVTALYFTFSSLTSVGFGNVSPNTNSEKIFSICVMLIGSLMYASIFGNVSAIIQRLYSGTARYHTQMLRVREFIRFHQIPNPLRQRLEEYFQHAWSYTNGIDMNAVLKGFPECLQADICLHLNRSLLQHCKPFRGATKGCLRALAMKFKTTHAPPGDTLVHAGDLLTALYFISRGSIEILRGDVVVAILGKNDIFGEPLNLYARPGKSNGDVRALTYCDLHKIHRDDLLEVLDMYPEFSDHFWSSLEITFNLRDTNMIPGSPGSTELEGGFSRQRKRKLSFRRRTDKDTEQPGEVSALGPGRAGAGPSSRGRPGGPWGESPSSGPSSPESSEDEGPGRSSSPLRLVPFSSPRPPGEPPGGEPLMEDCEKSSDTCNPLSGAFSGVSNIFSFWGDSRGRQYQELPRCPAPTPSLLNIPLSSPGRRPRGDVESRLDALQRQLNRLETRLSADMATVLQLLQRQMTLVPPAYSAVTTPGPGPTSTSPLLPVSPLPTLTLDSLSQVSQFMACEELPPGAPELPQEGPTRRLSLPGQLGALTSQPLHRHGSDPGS
Test: receptor profile (Table S4)
Settings: human
assay metric: inhibition at 10 µM (%)

• Cc1nc(C)c(C(=O)Nc2ccc(F)c(-c3nc4ncc(-c5ncccc5C)cn4n3)c2)o1 [compound 1] = -36

###

Target: Cav1.2 (Homo sapiens, UniProt Q13936)
Test: receptor profile (Table S4)
Conditions: human
assay metric: inhibition at 30 µM (%)

- Cc1nc(C)c(C(=O)Nc2ccc(F)c(-c3nc4ncc(-c5ncccc5C)cn4n3)c2)o1 [compound 1]: -7

###

Experiment: in vivo
Conditions: male, Sprague-Dawley, rat, plasma, iv, 3 mg/kg
assay metric: half-life

• Cc1nc(C)c(C(=O)Nc2ccc(F)c(-c3nc4ncc(-c5ncccc5C)cn4n3)c2)o1 = 3.8 h

###

Biological target: BSEP (Homo sapiens, UniProt O95342)
Experiment: receptor profile (Table S4), first BSEP line
assay metric: inhibition at 10 µM (%)

* Cc1nc(C)c(C(=O)Nc2ccc(F)c(-c3nc4ncc(-c5ncccc5C)cn4n3)c2)o1 | 28

###

Tested on: T. brucei bloodstream form overexpressing PSMB5 Y113F
Test: growth inhibition of T. brucei overexpressing PSMB5 Y113F
Assay type: cell-based
Settings: Trypanosoma brucei, 48 h, read-out: EC50, T. brucei growth
assay metric: EC50 (µM)

* Cc1nc(C)c(C(=O)Nc2ccc(F)c(-c3nc4ncc(-c5ncccc5C)cn4n3)c2)o1 [compound 1] | 3.3
